- procedure-summary: qHTS for Inhibitors of Plasmodium falciparum (GB4) proliferation (AID 504315); note: nearly all actives have a fitted effect of over 50% in size
- particulars: P. falciparum GB4 in erythrocytes, SYBR Green DNA, 72 h; series mostly up to 6.7 µM
Results filed as inconclusive are left out. Active and inactive are the calls of the source. Calls come from the whole dose curve; as a rule, active = well fitted inhibition curve with a large enough effect; inconclusive = small, poorly fitted or top-dose-only effect, or effect the other way; inactive = flat fitted curve, though single readings scatter.
Reply using exactly one outcome from active, inactive

Query: Status in this test for C=C(C(C)=O)C(O)c1ccc(C(F)(F)F)cc1 (centres undefined) ?
Result: inactive

Query: How did this test come out for OC[C@H]1O[C@H](c2ccccc2)C=C[C@H]1OCc1cccc(Br)c1 ?
Result: inactive

Query: Look up the recorded call for O=C1CCC=C1C(O)c1ccccc1 (centres undefined) in this test.
Result: inactive

Query: Call for entry COc1ccc2c(c1)c(CC(=O)NCc1ccc3c(c1)OCO3)c(C)n2C(=O)c1ccc(Cl)cc1 :
Result: inactive

Query: What is the recorded call for this molecule in the test? COc1ccc(C2=CC3=C(Br)C(=O)C(C)(OC(=O)c4ccc(Cl)nc4)C(=O)C3=CO2)cc1 (centres undefined)
Result: inactive

Query: I'd appreciate the recorded outcome for COC(=O)C[C@H]1c2ccccc2[C@@H]2C(=C[C@@H](C)[C@H]3C(=O)NC(=O)[C@H]32)N1C(=O)OC from this test.
Result: inactive

Query: // param item: COCCN1C(=O)C2=C(C1=O)C1N(C)c3ccccc3[C@@]13C[C@@H](CO)N(C(=O)CCC(=O)OC)C3=N2 (some centres undefined) ; yields the recorded call
Result: inactive

Query: Which outcome was entered for the molecule CCN1C(=O)[C@@H]2[C@H]3[C@H](O)[C@H](O)CC(=NOC[C@@H](O)COCc4ccco4)[C@@H]3CC[C@H]2C1=O in this test?
Result: inactive

Query: Hi, do you know how COc1ccc2c3c(c(=O)oc2c1)[C@H]1O[C@](CCCCN2C(=O)c4ccccc4C2=O)(Cc2cc(OC)c(OC)cc21)O3 came out in this test?
Result: active

Query: Would you mind telling me which call this test gave COCCN1C(=O)NC(c2cccc(C(F)(F)F)c2)C(C(=O)OC)=C1C (centres undefined) ?
Result: inactive

Query: Which outcome did this test record for the molecule CC=C[C@@H]1Oc2ccc(OC)cc2N2C(=O)[C@H](C)[C@@H](OCOC)[C@H]12 ?
Result: inactive

Query: Each molecule tested received a call. Report the one for COC1=CC2C(=O)C(C1=O)C1c3ccccc3CC21 (centres undefined) .
Result: inactive

Query: Recorded call for CC(=CCO)CCO ?
Result: inactive

Query: # lookup: test call for COC(=O)[C@@H](NC(=O)O[C@@H]1C(=O)c2cc(Br)ccc2O[C@H]1c1cccc(OC)c1)C(C)C
Result: inactive

Query: State the result this test recorded for CCOC(=O)CN1C(=O)N[C@@H](c2ccccc2)[C@H](C(C)=O)[C@H]1C .
Result: inactive

Query: Which outcome was assigned to COc1cccc([C@H]2Oc3ccc(OC)cc3C(=NOC[C@@H](O)COCc3ccco3)[C@H]2O)c1 in this test?
Result: inactive

Query: Dear all, I need the recorded test outcome for O=C1CCCC1C(O)c1ccc2ccccc2c1 (centres undefined) , thank you.
Result: inactive

Query: Any idea what this test logged for COc1ccc(COC(=O)NN=C2C[C@@H](O)[C@@H](O)[C@@H]3[C@H]4C(=O)N(Cc5ccc6c(c5)OCO6)C(=O)[C@@H]4CC[C@H]23)cc1 ?
Result: inactive

Query: What classification did CCCC=CC1C(=O)[C@@H]2O[C@H]2C2(OCC(CC)(CC)CO2)C1CO (some centres undefined) end up with in this test?
Result: inactive
